# PROCEDURE SUMMARY: Leishmania major promastigote growth inhibition, primary screen (AID 1063);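 also: promastigotes grown with compound for 44 hours at 28 °C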
# EXPERIMENTAL CONTEXT: Leishmania major promastigotes, resazurin fluorescence viability; at 10 µM; hits give high values
Screen size: about 200,000 compounds; about 18,000 (9%) were called active. Shown is part of a subset that was picked to be rich in actives.
Reported inhibition values are given for each entry in this list.
MEASUREMENT LABEL: inhibition (%)

>  <MOLECULE>
COC(=O)c1sccc1NC(=O)c1cc(OC)c(OC)c(OC)c1

>  <ENDPOINT UNIT>
%

>  <RECORDED RESULT>
8.27

$$$$
>  <MOLECULE>
Nc1c(NCCc2ccccc2)c2ccccc2oc1=O

>  <ENDPOINT UNIT>
%

>  <RECORDED RESULT>
-2.7

$$$$
>  <MOLECULE>
Cc1ccc(Nc2c(F)c(F)c(F)c(F)c2C(=O)O)c(C)c1

>  <ENDPOINT UNIT>
%

>  <RECORDED RESULT>
-6.66

$$$$
>  <MOLECULE>
O=C(NCCCN1CCOCC1)c1ccc(N2CCCC2)c([N+](=O)[O-])c1

>  <ENDPOINT UNIT>
%

>  <RECORDED RESULT>
-1.2

$$$$
>  <MOLECULE>
CCCCNS(=O)(=O)c1ccc2nc(SCC(=O)Nc3cc(C)cc(C)c3)[nH]c2c1

>  <ENDPOINT UNIT>
%

>  <RECORDED RESULT>
-3.48

$$$$
>  <MOLECULE>
Cc1ccc(O)c(NC(=S)NC(=O)COc2ccc(Br)cc2)c1

>  <ENDPOINT UNIT>
%

>  <RECORDED RESULT>
-2.21

$$$$
>  <MOLECULE>
COCCCn1c(CCC(=O)O)ccc1-c1ccc(F)cc1

>  <ENDPOINT UNIT>
%

>  <RECORDED RESULT>
2.69

$$$$
>  <MOLECULE>
Brc1ccc(CSc2ccc(-c3ccco3)nn2)cc1

>  <ENDPOINT UNIT>
%

>  <RECORDED RESULT>
2

$$$$
>  <MOLECULE>
CCN1CCc2nc(NC(=O)c3cc(F)c(F)cc3Cl)sc2C1

>  <ENDPOINT UNIT>
%

>  <RECORDED RESULT>
-0.49

$$$$
>  <MOLECULE>
CCOc1ccc(NC(=S)NC(=O)/C=C/c2ccc(OC)cc2)c([N+](=O)[O-])c1

>  <ENDPOINT UNIT>
%

>  <RECORDED RESULT>
-5.29

$$$$
>  <MOLECULE>
O=C(CSc1ccc([N+](=O)[O-])cn1)Nc1ccc(N2CCOCC2)c(Cl)c1

>  <ENDPOINT UNIT>
%

>  <RECORDED RESULT>
8.08

$$$$
>  <MOLECULE>
O=C(NCCCN1CCOCC1)c1ccccc1NS(=O)(=O)c1ccc(F)cc1

>  <ENDPOINT UNIT>
%

>  <RECORDED RESULT>
-1.28

$$$$
>  <MOLECULE>
COc1ccc(C2=NN(C(=O)c3cccnc3)C(c3ccccc3)C2)cc1 (stereo not drawn)

>  <ENDPOINT UNIT>
%

>  <RECORDED RESULT>
5.17

$$$$
>  <MOLECULE>
O=C(c1ccc(OC2CCN(Cc3ccccn3)CC2)cc1)N1CCCCCC1

>  <ENDPOINT UNIT>
%

>  <RECORDED RESULT>
39.9

$$$$
>  <MOLECULE>
O=[N+]([O-])c1ccc(NCCCN2CCOCC2)c(Cl)c1

>  <ENDPOINT UNIT>
%

>  <RECORDED RESULT>
90.3

$$$$
>  <MOLECULE>
COC(=O)Cn1c(=NC(=O)c2cc(OC)c(OC)c(OC)c2)sc2cc(OC)ccc21

>  <ENDPOINT UNIT>
%

>  <RECORDED RESULT>
55.3

$$$$
>  <MOLECULE>
COC(=O)Cn1c2ccc(C)cc2c2nc(C)sc21

>  <ENDPOINT UNIT>
%

>  <RECORDED RESULT>
-6.29

$$$$
>  <MOLECULE>
CC(C)Cn1c(CCC(=O)O)ccc1-c1cccs1

>  <ENDPOINT UNIT>
%

>  <RECORDED RESULT>
95.5

$$$$
>  <MOLECULE>
C/C=C/c1ccc(OCCCCN2CCC(C)CC2)c(OC)c1

>  <ENDPOINT UNIT>
%

>  <RECORDED RESULT>
95.6

$$$$
>  <MOLECULE>
Nc1nc(NCCCN2CCOCC2)nc(Nc2ccccc2)c1[N+](=O)[O-]

>  <ENDPOINT UNIT>
%

>  <RECORDED RESULT>
47.8

$$$$
>  <MOLECULE>
Fc1cccc(CSc2nnc3ccc(-c4ccncc4)nn23)c1

>  <ENDPOINT UNIT>
%

>  <RECORDED RESULT>
10.7

$$$$
>  <MOLECULE>
Cc1nnsc1C(=O)Nc1cccc(Cl)c1C

>  <ENDPOINT UNIT>
%

>  <RECORDED RESULT>
-7.14

$$$$
>  <MOLECULE>
CCn1c(NC(=O)c2ccccc2)c(-c2cccs2)c(=O)c2ccccc21

>  <ENDPOINT UNIT>
%

>  <RECORDED RESULT>
0.95

$$$$

* * *

# PROCEDURE SUMMARY: Leishmania major promastigote growth inhibition, primary screen (AID 1063);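 also: promastigotes grown with compound for 44 hours at 28 °C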
# EXPERIMENTAL CONTEXT: Leishmania major promastigotes, resazurin fluorescence viability; at 10 µM
Screen size: about 200,000 compounds; about 18,000 (9%) were called active. No stated cut-off is given here; in the data, active means inhibition above about 50%; inactive means the rest. Many of the other results were omitted from the sample, so actives are more common in it than they were.
Possible outcomes: YES = active, NO = inactive

>  <MOLECULE>
COc1ccc(CC(NC(C)=O)C(=O)NC2CCN(C(=O)C3CC3)CC2)cc1OC (stereo unspecified)

>  <CLASS NAME>
NO

$$$$
>  <MOLECULE>
O=C(NNC(=O)C1C2CCC(C2)C1C(=O)O)c1ccc(Cl)cc1 (stereo unspecified)

>  <CLASS NAME>
NO

$$$$
>  <MOLECULE>
CC(C)C(=O)NCc1cc(-c2ccc(Cl)cc2)no1

>  <CLASS NAME>
NO

$$$$
>  <MOLECULE>
O=C(COC(=O)/C=C/c1nc2ccccc2s1)Nc1ccccc1Oc1ccccc1

>  <CLASS NAME>
YES

$$$$
>  <MOLECULE>
Cc1ccc(N/N=C2\COC(C)(C)CC2=O)cc1

>  <CLASS NAME>
NO

$$$$
>  <MOLECULE>
CCN1CCN(C(C(=O)NC2CCCC2)c2cc3c(cc2[N+](=O)[O-])OCO3)CC1 (stereo unspecified)

>  <CLASS NAME>
NO

$$$$
>  <MOLECULE>
CCN(C(=O)COC(=O)/C=C/c1nc2ccccc2s1)C1CCS(=O)(=O)C1 (stereo unspecified)

>  <CLASS NAME>
NO

$$$$
>  <MOLECULE>
COc1ccccc1NC(=O)c1ccc(C)s1

>  <CLASS NAME>
NO

$$$$
>  <MOLECULE>
O=C(C(c1ccccc1)c1ccccc1)N1CCN(CC(O)COc2ccccc2)CC1 (stereo unspecified)

>  <CLASS NAME>
NO

$$$$
>  <MOLECULE>
O=C(c1ccncc1)c1ccc([N+](=O)[O-])cc1

>  <CLASS NAME>
NO

$$$$
>  <MOLECULE>
Cc1cccc(Cn2c(N3CCN(c4ccccc4)CC3)nc3c2c(=O)n(C)c(=O)n3C)c1

>  <CLASS NAME>
NO

$$$$

* * *

A collection of molecules and their measured inhibition
# PROCEDURE SUMMARY: Leishmania major promastigote growth inhibition, primary screen (AID 1063);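 also: promastigotes grown with compound for 44 hours at 28 °C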
# EXPERIMENTAL CONTEXT: Leishmania major promastigotes, resazurin fluorescence viability; at 10 µM; hits give high values
Hit rate of the full screen: of about 200,000 compounds, about 18,000 (9%) were called active. The sample as a whole holds a higher share of actives than the screen did.

>  <MOLECULE>
COCCNc1nc2nonc2nc1N1CCCC1c1nccs1 (stereo unspecified)

>  <ENDPOINT UNIT>
%

>  <inhibition>
-4.44

$$$$
>  <MOLECULE>
COc1ccc(OC)c(CNC(=O)c2cc(=O)[nH]c3ccc(S(=O)(=O)N4CCCC4)cc23)c1

>  <ENDPOINT UNIT>
%

>  <inhibition>
-4.76

$$$$
>  <MOLECULE>
N#CC1=C(N)Oc2[nH]c(=S)[nH]c(=O)c2C12C(=O)Nc1ccccc12 (stereo unspecified)

>  <ENDPOINT UNIT>
%

>  <inhibition>
-9.87

$$$$
>  <MOLECULE>
CCO[C@H]1OC(C(=O)Nc2ccccc2)=C[C@@H](C2CC2)[C@@H]1CCCO

>  <ENDPOINT UNIT>
%

>  <inhibition>
1.1

$$$$
>  <MOLECULE>
O=C(O)CCn1c(SCc2cc(=O)n3ccccc3n2)nc2ccsc2c1=O

>  <ENDPOINT UNIT>
%

>  <inhibition>
-0.88

$$$$
>  <MOLECULE>
O=C(CSc1ccc(-c2ccccc2)nn1)NCC1CCCO1 (stereo unspecified)

>  <ENDPOINT UNIT>
%

>  <inhibition>
-4.19

$$$$
>  <MOLECULE>
NS(=O)(=O)c1cccc(NC(=O)COC(=O)/C=C/c2ccco2)c1

>  <ENDPOINT UNIT>
%

>  <inhibition>
-5.99

$$$$
>  <MOLECULE>
Cc1cc2c(cc1C)[n+](C)cn2CC(O)COCC1CC=CCC1 (stereo unspecified)

>  <ENDPOINT UNIT>
%

>  <inhibition>
-1.67

$$$$
>  <MOLECULE>
O=C(Nc1ccccc1C(=O)O)c1cc(S(=O)(=O)N2CCCCC2)cs1

>  <ENDPOINT UNIT>
%

>  <inhibition>
-7.25

$$$$
>  <MOLECULE>
CN(C)c1ccc(C(=S)N2CCN(C(=S)Nc3ccc(Cl)cc3)CC2)cc1

>  <ENDPOINT UNIT>
%

>  <inhibition>
-3.85

$$$$
>  <MOLECULE>
Cn1cnc([N+](=O)[O-])c1Nc1ccccc1O

>  <ENDPOINT UNIT>
%

>  <inhibition>
-4.52

$$$$
